# study_target: CDK4/CyclinD1 (Homo sapiens)
# Sequence (P11802 whole entry, species assumed): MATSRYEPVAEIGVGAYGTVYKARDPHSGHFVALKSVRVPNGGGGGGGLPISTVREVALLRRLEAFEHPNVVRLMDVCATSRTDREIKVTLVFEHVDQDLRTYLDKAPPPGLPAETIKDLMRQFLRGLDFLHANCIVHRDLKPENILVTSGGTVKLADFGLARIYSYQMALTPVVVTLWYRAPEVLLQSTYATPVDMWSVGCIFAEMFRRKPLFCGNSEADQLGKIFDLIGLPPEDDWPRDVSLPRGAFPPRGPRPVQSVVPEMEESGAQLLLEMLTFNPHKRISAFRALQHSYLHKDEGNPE
# Sequence (P24385 whole entry partner, species assumed): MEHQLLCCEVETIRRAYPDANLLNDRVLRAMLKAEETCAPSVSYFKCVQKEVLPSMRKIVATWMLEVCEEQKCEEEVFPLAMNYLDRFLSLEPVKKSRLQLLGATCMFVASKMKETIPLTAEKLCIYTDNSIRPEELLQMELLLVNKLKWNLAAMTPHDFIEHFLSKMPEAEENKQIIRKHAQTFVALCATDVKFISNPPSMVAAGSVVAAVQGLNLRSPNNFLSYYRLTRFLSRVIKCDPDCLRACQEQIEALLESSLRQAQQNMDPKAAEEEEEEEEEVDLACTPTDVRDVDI
# method: CDK4/CyclinD1 Flashplate assay, 96-well format, biotinylated-Rb peptide substrate
# Format: biochemical
reported_metric: inhibition at 10 µM
Remember to follow the number with its unit.

Worked examples, 7 compounds total:
{"columns": ["compound", "inhibition at 10 µM"],
 "data": [
  ["O=C(Nc1nc2cc(OS(=O)(=O)c3ccc(-n4ccnc4)cc3)ccc2[nH]1)NC1CCCCC1", "51%"],
  ["O=C(Nc1cccc(F)c1)Nc1nc2cc(OS(=O)(=O)c3ccc(-n4ccnc4)cc3)ccc2[nH]1", "70%"],
  ["COC(=O)Nc1nc2cc(OS(=O)(=O)c3ccc(NC(C)CO)cc3)ccc2[nH]1 (centres unmarked)", "78%"],
  ["CC(CO)Nc1ccc(S(=O)(=O)Oc2ccc3[nH]c(NC(=O)NCCN4CCOCC4)nc3c2)cc1 (centres unmarked)", "97%"],
  ["O=C(NCCO)Nc1nc2cc(OS(=O)(=O)c3ccc(-n4ccnc4)cc3)ccc2[nH]1", "90%"],
  ["O=C(Nc1nc2cc(OS(=O)(=O)c3ccc(-n4ccnc4)cc3)ccc2[nH]1)NC1CCCC1", "60%"],
  ["COC(=O)Nc1nc2cc(OS(=O)(=O)c3c(C)noc3C)ccc2[nH]1", "50%"]
]}

Next:
**Q:** Given the compound COCCNC(=O)Nc1nc2cc(OS(=O)(=O)c3ccc(NC(C)CO)cc3)ccc2[nH]1 (centres unmarked) , what is its reported inhibition at 10 µM?
**A:** 78%
